Can you tell me LD50 for the items I'm about to list?
Assay protocol: Acute toxicity, mouse
Experimental conditions: in vivo, po, male
From the text: Acute toxicity of the ascochlorin derivatives was observed by the use of Wister-Imamichi strain male rats weighing 230 ± 30 g and ddY strain male and female mice (5 weeks old) weighing 20 ±3 g which were divided into groups of 10 members each. Japanese native male rabbits weighing 2 kg ± 300 g which were divided into groups of five members each were also used. […]

So what does the record say about LD50 for CC(/C=C/[C@@]1(C)[C@H](C)CCC(=O)[C@@H]1C)=C\Cc1c(O)c(Cl)c(C)c(C=O)c1O [ascochlorin, reference compound] ?
> 5000 mg/kg

Could you share which LD50 value was measured for COc1c(Cl)c(C)c(C=O)c(O)c1C/C=C(C)/C=C/C1(C)C(C)CCC(=O)C1C (centres unmarked) ?
> 7300 mg/kg
